tested on: T47D; assay: NCI tumour cell line growth inhibition, 48 h
Calls of active or inactive are those of the source. No stated cut-off is given here; in the data, active = GI50 up to about 1.1 µM and inactive = higher.
assayReadout: GI50

O=C(O)c1ccccc1C1CCCc2c1[nH]c1ccccc21 (stereo not given)    11.4 µM (inactive)
Cc1cn([C@H]2C[C@H](O)[C@@H](CO)O2)c(=O)nc1N    > 100 µM (inactive)
Cc1cc(C)c2c(=N)c3ccccc3n(CCCCCCCCn3c4ccccc4c(=N)c4c(C)cc(C)nc43)c2n1    1.77 µM (inactive)
COC(=O)C1=C(C(=O)Nc2cccnc2Cl)N(c2ccc(OC)cc2[N+](=O)[O-])C(c2ccc(C)cc2)=CC1c1ccc(OC)cc1OC (stereo not given)    10 µM (inactive)
O=C1CCSc2nc(-c3ccc4c(c3)OCO4)nn21    > 10 µM (inactive)
